Target: human ALK-1/Fc (human, UniProt P37023)
Experiment: SPR, bivalent
Measured quantity: pKd
Scale: negative log10 of molar concentration, which is what pKd denotes.

Suppose we examine the binder 1.162.1 (antibody, V domains shown) VH: QVQLQESGPGLVKPSQTLSLICTVSGGSISSGEYYWSWIRQHPGKGLEWIGYIYYSGSTYYNPSLKSRLTISVDTSKNQFSLKLSSVTAADTAVYYCAREGIGAFDIWGQGTMVTVSS VL: EIVLTQSPGTLSLSPGERATLSCRASQSVSSSYLAWYQQKPGQAPRLLIYGASSRATGIPDRFSGSGSGTDFTLTIIRLDPEDFAVYYCQRYGSSPITFGQGTRLEIK ; what pKd value has been reported?
10.74

Again, but for 4.24.2 (antibody, V domains shown) VH: QVQLQESGPGLVKPSQTLSLTCTVSGGSISSNDYYWNWIRQHPGKGLEWIGYIYYSGSTYYNPSLKSRVTISVDTSKNQFSLKLSSVTAADTAVYYCARESTDGMDVWGQGTTVTVSS VL: ENVLTQSPGTLSLSPGERATLSCRASQSVSSNYLAWYQQKPGQAPRLLIYGASSGATGIPDRFSGSGSGTDFTLTISRLEPEDFAVYYCQHYGSSPITFGQGTRLEIK
10.15

Now the same for 4.58.2 (antibody, V domains shown) VH: QVQLQESGPGLVKPSQTLSLTCTVSGGSISSGDYYWNWIRQHPGKGLEWIGYIYYSGSTYYNPSLKSRVTISVATSKNQFSLKLSSVTAADTAVYYCAREATEGFDYWGQGTLVTVSS VL: EIVLTQSPGTLSLSPGERATLSCRASQSVSTTYLAWYQQKPGQAPRLLIYGASSRATGIPDRFSGSGSGTDFTLTISRLEPEDFALYYCQHYGTSSITFGQGTRLEIK
10.40

Measured values drawn from patent US9221915 for this set.
